Values from PubChem BioAssay (NCI)

# Test system: CCRF-CEM leukemia
# experimental.details: NCI tumour cell line growth inhibition, 48 h
quantity.kind: TGI

compound	experimental.system	test.result
COc1ccc2c(c1)O/C(=C\c1ccc([N+](=O)[O-])s1)C2=O	CCRF-CEM leukemia	> 100 µM
Cc1ccccc1NC(=O)CC(=O)n1nc(-c2ccccc2)c(N=Nc2ccc([N+](=O)[O-])cc2)c1-c1ccccc1	CCRF-CEM leukemia	> 100 µM
Cc1ccc(S(=O)(=O)N/N=C2\CC3C4CCC3C2C4)cc1 (centres undefined)	CCRF-CEM leukemia	> 100 µM
OCC1(CNc2cc(Cl)ncn2)CCC1	CCRF-CEM leukemia	> 100 µM

Ask: What reported TGI corresponds to "Cc1ccc(S(=O)(=O)NC(=O)NCC(=O)O)cc1" on CCRF-CEM leukemia?
Result: > 100 µM

Ask: // lookup TGI | system=CCRF-CEM leukemia | key= "Cc1cccc2c(=O)c3c(O)cc4c(c3n(C)c12)C=CC(C)(C)O4"
Result: > 100 µM

Ask: Enter reported TGI observed with CCRF-CEM leukemia for "C[C@]12CC[C@H]3[C@@H](CCC4=CC(=O)CC[C@@]43C)[C@@H]1CC[C@@H]2OC(=O)c1cccc2c(=O)c3ccccc3[nH]c12"
Result: > 100 µM

Ask: Give CCRF-CEM leukemia TGI for "COc1ccc(-c2cc3c(N)ncnc3o2)cc1"
Result: > 25 µM

Ask: What measured TGI is associated with "C[C@H](CCCOS(C)(=O)=O)[C@H]1CC[C@H]2[C@@H]3CC[C@@H]4C[C@H](OS(C)(=O)=O)CC[C@]4(C)[C@H]3CC[C@]12C" on CCRF-CEM leukemia?
Result: > 2500 µM

###

# System: HT29 colon
# experimental.details: NCI tumour cell line growth inhibition, 48 h
quantity.kind: TGI

Worked set:
compound	test.result
O=C(CN1CCN(c2ccccn2)CC1)Nc1ccc(Cl)cc1C(=O)c1ccccc1Cl	> 100 µM
COC(=O)C(=O)C(C(=O)C(=O)Nc1nc(=S)[nH][nH]1)c1nc2ccc([N+](=O)[O-])cc2[nH]c1=O (configuration not stated)	> 100 µM
COc1ccc(NC(C)=O)cc1N1C(=O)/C(=C\c2cccc(Oc3ccccc3)c2)SC1c1ccccc1 (configuration not stated)	45.5 µM
C[C@]12CC[C@H]3[C@@H](CCC4=CC(=O)CC[C@@]43C)[C@@H]1CC[C@@H]2OC(=O)c1cccc2c(=O)c3ccccc3[nH]c12	> 100 µM
CCc1ncc(C(C)(O)c2ccccc2)n1Cc1ccccc1 (configuration not stated)	> 100 µM

Ask: Quick check: TGI of COc1cc(C2SC(N)=Nc3c2c(C)nn3C(=O)c2ccc(Cl)cc2)ccc1O (configuration not stated) ?
Result: > 10 µM

Ask: Give the measured TGI of Fc1ccc(C(OCCN2CCC3CCC(C2)N3C/C=C/c2cccnc2)c2ccc(F)cc2)cc1 (configuration not stated) .
Result: 14.6 µM

Ask: Requested read-out: TGI. Entry: COc1cc(C2S/C(=C/c3ccccc3)C(=O)N2c2ccccn2)cc(OC)c1OC (configuration not stated)
Result: > 47 µM

Ask: TGI for "Cc1cc2nc3c(C#N)c4c(c(Nc5ccc(Cl)cc5)n3c2cc1C)CCC4" ?
Result: 32 µM

Ask: Quick check: TGI of O=C(NC(Cc1ccccc1)P(=O)(O)c1ccccc1)OCc1ccccc1 (configuration not stated) ?
Result: > 100 µM

Ask: Query (compound): "CC(C)[C@H]1NC(=O)[C@H]2N=C(O[C@@H]2C)[C@@H]2CCCN2C(=O)[C@H](Cc2ccccc2)NC(=O)[C@@H]2COC(=N2)[C@@H](Cc2ccccc2)NC(=O)[C@@H]2COC1=N2" ; field requested: TGI
Result: > 100 µM

Ask: Field request: TGI | item: CC(=O)c1cccc(NC(=O)/C(=N\NC(=S)NN)C2C(=O)Nc3ccccc3S2=O)c1 (configuration not stated)
Result: > 100 µM

###

# System: SW-620 colon
# experimental.details: NCI tumour cell line growth inhibition, 48 h
quantity.kind: TGI

Known results for compounds:
compound	experimental.system	TGI
O=c1c2cc([N+](=O)[O-])cnc2sn1-c1ccc(Br)cc1	SW-620 colon	> 100 µM
C[C@]12CC[C@H]3[C@@H](CCC4=CC(=O)CC[C@@]43C)[C@@H]1CC[C@@H]2OC(=O)c1cccc2c(=O)c3ccccc3[nH]c12	SW-620 colon	> 100 µM
CNCC1CCn2c(c(C3=C(c4cn(C)c5ccccc45)C(=O)NC3=O)c3ccccc32)C1 (stereo unspecified)	SW-620 colon	5.6 µM
Cc1cc2nc3c(C#N)c4c(c(Nc5ccc(Cl)cc5)n3c2cc1C)CCC4	SW-620 colon	34 µM
CCN1CCC(O)(/C=C/c2ccc(Cl)cc2)C(C(=O)/C=C/c2ccc(Cl)cc2)C1 (stereo unspecified)	SW-620 colon	56.8 µM

Ask: Look up TGI: "CC(C)Cn1cnc2c(SCc3ccccn3)nc(N)nc21"
Result: > 100 µM

Ask: Can you share its TGI? I mean this compound: COC(=O)C1=C(O)C(C(=O)OC)[C@@]2(O)[C@@H](C(=O)OC)C(c3ccccc3Cl)C[C@@H]1[C@@H]2C(=O)OC (stereo partly specified)
Result: 21.9 µM

Ask: Param item = "Cc1ccc(NCc2nnc3c(-c4ccccc4)nc4ccccc4n23)cc1" ; retrieve measured TGI.
Result: > 100 µM

Ask: Would you mind telling me what TGI value was observed for "NC(N)=N/N=C/c1c(-c2ccc(Cl)cc2)nc2n1CCS2" ?
Result: 21 µM

Ask: Any idea what TGI was measured for "CN(C)c1ccc(/C=N/NC(=O)c2cnc3ccccc3c2)cc1" ?
Result: > 100 µM

###

# System: LOX IMVI melanoma
# experimental.details: NCI tumour cell line growth inhibition, 48 h; in the data active = GI50 below about 0.43 µM; inactive = the rest
Where a SMILES comes first, the peptide text is derived from it. [ ]: non-standard residue; d: D form. The star is where a group is joined. ξ: configuration not given here. dIva = CC[C@@](C)(N)C(=O)O; Aib = CC(C)(N)C(=O)O; ξP = O=C(O)C1CCCN1; βAla = NCCC(=O)O; X5 = OCN*
# output must be one of active, inactive

Solved cases below.
molecule	experimental.system	class.assignment
COc1ccc(/C=C/C(=O)/C=C(/C=C/c2ccc(OC)c(OC)c2OC)OB(F)F)c(OC)c1OC	LOX IMVI melanoma	inactive
CCCC(CCC)C(=O)O	LOX IMVI melanoma	inactive
COc1cc[nH]c1/C=C1\C(=O)Nc2ccc([N+](=O)[O-])c(N3CC[C@@H](O)C3)c21	LOX IMVI melanoma	active
CC(=O)Nc1nc(C)c(-c2cc3c(c(S(C)(=O)=O)c2)C(=O)N([C@@H](C)C2CC2)C3)s1	LOX IMVI melanoma	inactive

Ask: Answer briefly: the call reported for CC[C@@](C)(NC(=O)[C@H](C)NC(=O)CCNC(=O)C(C)(C)NC(=O)[C@H](C)NC(=O)[C@@H]1CCCN1C(=O)[C@@](C)(CC)NC(=O)[C@H](Cc1ccccc1)NC(=O)C1CCCN1C(=O)C(C)(C)NC(=O)C1CCCN1C(=O)C(C)(C)NC(C)=O)C(=O)NCCC(=O)N[C@@H](CC(C)C)C(=O)NC(C)(C)C(=O)NCCC(=O)N[C@@H](CC(C)C)C(=O)NC(C)(C)C(=O)NC(C)(C)C(=O)N[C@@H](CC(C)C)C(=O)NCCC(=O)NCO (stereo not given in full) (Ac-[Aib][ξP][Aib][ξP]F[dIva]PA[Aib][βAla]A[dIva][βAla]L[Aib][βAla]L[Aib][Aib]L[βAla]-X5) in this assay.
Result: active

###

# System: CCRF-CEM leukemia
# experimental.details: NCI tumour cell line growth inhibition, 48 h
Listed compounds paired with reported TGI

compound	experimental.system	quantity.kind	test.result
CC(=O)O[C@@H]1CN(S(=O)(=O)c2ccc(C)cc2)C[C@@H]1C1CCCCC1	CCRF-CEM leukemia	TGI	> 100 µM
CC(=O)Nc1ccccc1S(=O)c1ccccc1 (centres undefined)	CCRF-CEM leukemia	TGI	> 100 µM
O=C(CN1CCN(c2ccccn2)CC1)Nc1ccc(Cl)cc1C(=O)c1ccccc1Cl	CCRF-CEM leukemia	TGI	> 100 µM
CN1CCN(Cc2ccc(NC(=O)c3[nH]ncc3Nc3cc(OC4CCCC4)ncn3)cc2)CC1	CCRF-CEM leukemia	TGI	11.2 µM
O=C1C=C(OCC=C(Cl)Cl)C(=O)c2ccccc21	CCRF-CEM leukemia	TGI	> 19.7 µM
COc1cc(N(CCC#N)CCC#N)ccc1/C(N=Nc1cccc(C)c1)=N\NC(=O)c1ccc(C)cc1	CCRF-CEM leukemia	TGI	> 100 µM

Ask: Report TGI for "CC(C)[Si](OC1=CCC[C@H]2NC(=O)[C@@H](Cc3ccc([N+](=O)[O-])cc3)[C@@]12C)(C(C)C)C(C)C" please.
Result: 8.19 µM

Ask: Data request, read-out TGI, for "CN1C(=O)C(C)(C)Oc2c(-c3cn(C)c(=O)c4[nH]ccc34)cc(S(C)(=O)=O)cc21"
Result: > 100 µM

Ask: Any idea what TGI was measured for "CN(C)c1ccc(/C=c2\sc3nnc(Cc4ccccc4)n3c2=O)cc1" ?
Result: > 100 µM

Ask: Need TGI of NNC(=O)N/N=C1/C(=O)N(c2ccc(Cl)c(Cl)c2)C(=O)C(=O)C1c1nc2ccccc2o1 (centres undefined) , thanks.
Result: > 100 µM

Ask: Look up TGI for this compound: "N#CCCN(CCC#N)c1ccc(/C=C2\N=C(c3ccccc3)N(c3ccccc3)C2=O)cc1"
Result: > 100 µM

Ask: # input compound: "CN1CCN(Cc2ccc(NC(=O)c3cncc(C#Cc4ncc5ccccn45)c3)cc2C(F)(F)F)CC1" ; wanted: its TGI
Result: 8.3 µM

Ask: Report TGI for "CCOC(=O)c1c[nH]c2cc3c(cc2c1=O)CCS3" please.
Result: > 100 µM

Ask: Item COc1cc2c(cc1OC)C(=O)N1CCCC1C(=O)S2 (centres undefined) has what recorded TGI?
Result: > 100 µM

Ask: Form field: reported TGI of ClCCCN1CCCCC1CCl (centres undefined)
Result: > 100 µM

Ask: Endpoint output: TGI of "NC(N)=N/N=C/c1c(-c2ccc(Cl)cc2)nc2n1CCS2" . Value?
Result: 16.9 µM

Ask: What value of TGI has been recorded for this entry: C#CC1(O)CC(c2ccccc2)N(C)C(c2ccccc2)C1 (centres undefined)
Result: > 100 µM

Ask: May I ask what TGI has been recorded for CC1CCC2[C@@H](C)COC3O[C@]4(C)CCC1C32OO4 (some centres undefined) ?
Result: > 100 µM

Ask: # get_value(readout='TGI', item= "NC(=O)N=Nc1c2ccccc2n2[nH]ccc12" )
Result: > 100 µM

Ask: Query: TGI; subject: "CCO/N=C(/CC)c1ccc(Br)s1"
Result: > 100 µM

Ask: Look up TGI for this compound: "N#Cc1c(Nc2ccccc2)[n+]([O-])c2ccc(Cl)cc2[n+]1[O-]"
Result: > 27.2 µM

Ask: # query: TGI of entry Nc1ncnc2c1ncn2C1OC(C(=O)OCCO)C(O)C1O (centres undefined)
Result: > 100 µM

Ask: TGI for CCOC(=O)C1C(=O)c2cccc(OC)c2C2COC(=O)N12 (centres undefined) ?
Result: > 100 µM

Ask: Fill in: TGI of "Cc1ccc(SSCCCCS(=O)O)cc1" is ___
Result: 62.5 µM
